Molecular target: T1, human TL1A extracellular domain with N-terminal HIS and FLAG tag (human, UniProt O95150 72-251)
T1 construct: the whole entry is named; also called TNFSF15
T1 sequence: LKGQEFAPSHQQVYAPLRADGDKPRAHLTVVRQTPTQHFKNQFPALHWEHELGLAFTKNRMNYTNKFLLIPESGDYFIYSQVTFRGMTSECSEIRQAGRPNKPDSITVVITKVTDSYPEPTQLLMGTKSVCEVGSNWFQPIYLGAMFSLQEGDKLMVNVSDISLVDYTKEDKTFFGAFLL
Assay: SPR Run 9, antibody on Protein A, TL1A 5 ug/mL, timepoint 44
readout-label: TL1A Binding Level (Early) (RU)
Write the value in RU as a bare number.

Look over these answered cases.
320-597 (antibody, human IgG1, name in Kabat numbering, V domains shown, full-length human IgG1, lambda) VH: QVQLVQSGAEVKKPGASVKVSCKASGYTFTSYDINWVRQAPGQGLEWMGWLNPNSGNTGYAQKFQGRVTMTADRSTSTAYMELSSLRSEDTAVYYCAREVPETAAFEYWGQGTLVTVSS VL: QSVLTQPPSVSGAPGQRVTISCTSSSSDIGAGQGVHWYQQLPGTAPKLLIEGYYNRPSGVPDRFSGSKSGTSASLTITGLLPEDEGDYYCQSFDGTLSALFGGGTKLTVLG: 115
320-601 (antibody, human IgG1, name in Kabat numbering, V domains shown, full-length human IgG1, lambda) VH: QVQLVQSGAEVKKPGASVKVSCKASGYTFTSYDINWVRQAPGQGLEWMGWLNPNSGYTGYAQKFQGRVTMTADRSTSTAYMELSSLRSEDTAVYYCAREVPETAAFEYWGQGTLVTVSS VL: QSVLTQPPSVSGAPGQRVTISCTSSSSDIGAGLGVHWYQQLPGTAPKLLIEGYYNRPSGVPDRFSGSKSGTSASLTITGLLPEDEGDYYCQSFDGTLSALFGGGTKLTVLG: 121

For 320-615 (antibody, human IgG1, name in Kabat numbering, V domains shown, full-length human IgG1, lambda) VH: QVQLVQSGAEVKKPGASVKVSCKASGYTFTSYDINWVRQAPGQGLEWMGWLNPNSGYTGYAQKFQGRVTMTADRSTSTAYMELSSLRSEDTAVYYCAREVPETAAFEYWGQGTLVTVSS VL: QSVLTQPPSVSGAPGQRVTISCTSSSSDIGAGLGVHWYQQLPGTAPKLLIEGYYNRPSGVPDRFSGSKSGTSASLTITGLLPEDEGDYYCQSYDYTLSALFGGGTKLTVLG , what is its reported TL1A Binding Level (Early)?
113
